# System: UACC-257 melanoma
# experiment.notes: NCI tumour cell line growth inhibition, 48 h
property.name: TGI

These solved cases illustrate the format of a correct answer.
| molecule | recorded.result |
| --- | --- |
| COc1ccc(C2Oc3ccc(O)cc3[C@@H]2C)cc1OC (some centres undefined) | > 100 µM |
| N/N=C(\CCN1CCCC1)CC(c1ccccc1)c1c(O)c2ccccc2oc1=O (centres undefined) | > 100 µM |
| O=C(NCCCCN(CCCNC(=O)C(F)(F)F)Cc1ccccc1)C(F)(F)F | > 100 µM |

Entry COc1ccc(/C=C/c2cc(OC)cc(OC)c2)cc1 , system UACC-257 melanoma: what TGI was measured?
> 100 µM

====

# Tested on: DU-145 prostate
# experiment.notes: NCI tumour cell line growth inhibition, 48 h
Give TGI for every item shown.

| molecule | TGI |
| --- | --- |
| O=C(NC(N1CCN(c2cc3c(cc2F)c(=O)c(C(=O)O)cn3C2CC2)CC1)(C(F)(F)F)C(F)(F)F)c1ccccc1 | > 100 µM |

Give me TGI for each of these molecules, listed below.
1. CN(C)CCNC(=O)c1cccc2c(NC(CCCN=C(N)N)C(=O)O)c3ccccc3[n+](C)c12 (stereo not drawn)
2. CC(=O)Oc1cn(-c2ccc(Cl)cc2)nc1C1=NN(C(C)=O)C(c2ccc(F)cc2F)O1 (stereo not drawn)

1. > 100 µM
2. > 100 µM

====

Please go through the items and note down their TGI.
# Test system: NCI-H226 lung
# experiment.notes: NCI tumour cell line growth inhibition, 48 h

Please state, for each entry, its recorded TGI.
1. COC1CC(OC2C(C)OC(OC3C(C)OC(OC4CCC5(C)C(=CCC6(O)C5CC(OC(=O)c5ccc(O)cc5)C5(C)C(O)(C(C)=O)CCC65O)C4)CC3OC)CC2OC)OC(C)C1O (stereo not given) (tested in a mixture with another compound)
2. CCc1c(-c2ccccc2)[nH]c2ccccc2c1=O

1. > 100 µM
2. 84 µM

====

# Test system: HT29 colon
# experiment.notes: NCI tumour cell line growth inhibition, 48 h
Could you please report measured TGI for the items listed next?

Provide the reported TGI of each entry below, same order.
1. COc1ccc(Cc2nn(C3OC(COC(C)=O)C(OC(C)=O)C(OC(C)=O)C3OC(C)=O)c(=S)n(-c3ccc(OC)cc3)c2=O)cc1 (stereo not drawn)
2. C[C@H](Nc1ccc2c(c1)OCCn1cc(N3C(=O)OC[C@H]3C(F)F)nc1-2)C(N)=O
3. COc1ccc2c(c1)CCc1cc(C(N)=O)c3nnnn3c1-2

1. > 100 µM
2. > 100 µM
3. > 100 µM

====

# System: HCC-2998 colon
# experiment.notes: NCI tumour cell line growth inhibition, 48 h
Kindly supply the reported TGI values for the records listed here.

| compound | recorded.result |
| --- | --- |
| COc1ccc(C(=O)N2N=C(c3ccc(Br)cc3)CC2c2cn(-c3ccccc3)nc2-c2ccccc2)cc1 (stereo unspecified) | > 50 µM |
| CCOC(=O)N1CCC2C(=C(C)C(C)C3=C2C(=O)c2ccccc2C3=O)C1 (stereo unspecified) | > 10 µM |
| O=c1cc(NNc2ccc(F)cc2)[nH]c(=O)[nH]1 | 51.3 µM |

// each compound listed below needs its TGI
1. Cc1cccc(C)c1NC(=O)/C=C/c1ccccc1
2. OC1CC1Sc1ccccc1 (stereo unspecified)
3. NC(N)=NCCCC(NC(=O)OCCCCCn1ccc(N)nc1=O)C(=O)O (stereo unspecified)

["> 100 µM", "> 100 µM", "> 100 µM"]

====

# Test system: HCC-2998 colon
# experiment.notes: NCI tumour cell line growth inhibition, 48 h
property.name: TGI

# example entries with known answers
| compound | TGI |
| --- | --- |
| CCc1nc(N)c2nc(-c3ccc(C#N)cc3)oc2n1 | > 100 µM |
| CC(C)N(C(=O)C12C3(C(=O)OC(C)(C)C)C4C5(C#N)C3C1(C(=O)OC(C)(C)C)C5C42C(=O)OC(C)(C)C)C(C)C (stereo not drawn) | > 100 µM |

# evaluate next
Look at this compound and give its reported TGI. C=C1CC[C@@H]2C(C)(C)[C@H](O)CC[C@@]2(C)[C@@H]1COc1ccc2ccc(=O)oc2c1
> 100 µM

====

# Test system: MDA-N
# experiment.notes: NCI tumour cell line growth inhibition, 48 h
Please provide measured TGI for the entries that follow.

I would be grateful if you could provide TGI for each of the following entries.
1. NCCN1C(=O)c2cc(Cl)c(Cl)cc2C1(O)c1ccc(Cl)cc1 (stereo unspecified)
2. CCOC(=O)C(=CNC(=S)c1ccncc1)C(=O)OCC
3. Cc1cccc(C)c1NC(=O)/C=C/c1ccccc1

1. 3.47 µM
2. > 100 µM
3. > 100 µM

Please supply TGI for each of the following items, keeping them in order.
1. CC(=O)Oc1c(C)cc2c(c1C)C(C)CN2C(C)=O (stereo unspecified)
2. N/C(=N\Nc1ccc(C(=O)O)cc1)c1cnccn1

1: > 100 µM; 2: > 100 µM

Give measured TGI for every item shown.
1. C[C@]12OC(=O)[C@]3(O)CC[C@H]4[C@@H](C[C@@H](O)[C@@]5(Cl)CC=CC(=O)[C@]45C)[C@]45OCC6C(=O)O[C@@H]1C[C@@]6(C)[C@H](C4=O)[C@@]32O5 (stereo partly specified)
2. CN(C)C=Nc1ccc2c3c(cccc13)-c1ccccc1-2
3. CCOP(=O)(OCC)/C(=C\n1c(=S)[nH]c2cc(C)ccc21)C(=O)OC
4. CN(N=O)C(=O)NNC(=O)N(C)N=O

17 µM
27.6 µM
> 100 µM
> 100 µM

Please supply TGI for each of the following items, keeping them in order.
1. COC(=O)c1ccc2cc(O)c(O)cc2c1
2. COc1ccc(N2C(=O)C3c4[nH]c5cccc(Cl)c5c4C4CCC(C(C)(C)C)CC4C3C2=O)cc1 (stereo unspecified)

["> 100 µM", "> 100 µM"]

====

# Test system: A549 NSCLC
# experiment.notes: NCI tumour cell line growth inhibition, 48 h
Where a SMILES comes first, the peptide text is derived from it. Bridges are numbered along the chain shown (N, C = ends). [ ]: non-standard residue; d: D form. The star is where a group is joined. ξ: configuration not given here. PhAc = O=C(Cc1ccccc1)*; ξP = O=C(O)C1CCCN1
Hi there, I'd appreciate the recorded TGI for every entry that follows.

Examples from the recorded data:
| compound | measured.target | TGI |
| --- | --- | --- |
| N/C(=N\Nc1ccc(C(=O)O)cc1)c1cnccn1 | A549 NSCLC | > 100 µM |
| COc1cc2c[n+](C)c3c4cc(OC)c(OC)cc4c(OCCCCCCCCOc4cc5c6cc(OC)c(OC)cc6c[n+](C)c5c5cc(OC)c(OC)cc45)cc3c2cc1OC | A549 NSCLC | > 100 µM |
| CCCC(=O)OCC(COC(=O)CCC)OC(=O)CCC | A549 NSCLC | > 100 µM |

Give TGI for all compounds that follow.
1. CC(=O)COC(=O)CC(C)=O
2. COCC1OC(OC2OCC3OC4(OCC(O)(C(C)OC)C5OCOC54)OC3C2OC)C(OC)C(O)C1OC1OC(C)C(OC)C(OC2OC(C)C3OC4(CC(O)C(OC5CC(OC6CC(C)([N+](=O)[O-])C(OC)C(C)O6)C(OC(=O)c6c(C)c(Cl)c(O)c(Cl)c6OC)C(C)O5)C(C)O4)OC3(C)C2O)C1O (stereo not drawn)
3. c1ccc2[nH]c(C3CCCCO3)nc2c1 (stereo not drawn)

1: > 100 µM; 2: > 100 µM; 3: > 100 µM

For the 2 compounds below, give their TGI values.
1. COC(=O)C1CC2c3c(c4ccccc4n3C)CC(C1=O)N2C (stereo not drawn)
2. O=C(Cc1ccccc1)N[C@@H]1COC(=O)C2CCCN2C(=O)[C@@H]2CCCN2C1=O (stereo partly drawn) (PhAc-[dS]-Pro-[ξP]; ester 1-C)

["> 100 µM", "> 100 µM"]

====

Consider the following molecules; for each one, report its TGI.
# Test system: K-562 leukemia
# experiment.notes: NCI tumour cell line growth inhibition, 48 h

Below, 5 molecules whose answers are already recorded.
| molecule | TGI |
| --- | --- |
| CCOC(=O)COc1ccc(OC)c2c1C(=O)CCC2 | > 100 µM |
| c1ccc(-c2ccc(-c3ccc(C4=NCCN4)cc3)o2)cc1 | 3.44 µM |
| COc1ccc(-c2nc(S(=O)(=O)c3ccccc3)c(S(=O)CC(=O)N3CCC(C)CC3)o2)cc1 (stereo unspecified) | 3.03 µM |
| COc1cc(S(=O)(=O)Nc2ccc(-c3csc(N4C(=O)C(C)SC4c4cccc(Oc5ccccc5)c4)n3)cc2)ccc1Cl (stereo unspecified) | > 100 µM |
| CC(C)(O)C1CC[C@]2(C)CC[C@]3(C)[C@H](CC[C@@H]4[C@@]5(C)CC[C@H](O)C(C)(C)[C@@H]5CC[C@]43C)[C@@H]12 (stereo partly specified) | > 100 µM |

Record TGI per entry; entries follow.
1. CC(C)c1ccccc1NC(=O)CCC(=O)NN
2. COc1ccc(NC(C)=O)cc1N1C(=O)/C(=C\c2cccc(Oc3ccccc3)c2)S(=O)(=O)C1c1ccccc1 (stereo unspecified)
3. Cc1ncc(CSc2ccccc2N)c(CO)c1O
4. CC(=O)c1c(-c2ccc(Cl)cc2)c(C#N)c(=S)n(C2OC(CO)C(O)C(O)C2O)c1-c1ccccc1 (stereo unspecified)
5. COC(=O)CCC1(C)C2CCC1/C(=N/O)C2 (stereo unspecified)
6. O=C(O)c1ccc2nc(-c3ccc(OCCCCCOc4ccc(-c5nc6ccc(C(=O)O)cc6[nH]5)cc4)cc3)[nH]c2c1

["> 100 µM", "68.9 µM", "> 100 µM", "> 100 µM", "> 100 µM", "> 100 µM"]
